Provenance of the data: patent US20160257732A1

system-name: recombinant HA (rHA), subtype H7 (A/Netherlands/219/03(H7N7)) (influenza A virus)
assay-remarks: ELISA, coated rHA
Task for the reader: assign each of the following binders its reported EC50.
Give the value, in units of µg/mL, as a plain number.

Value lookup for EC50; key = Antibody 5 (antibody, V domains shown) VH: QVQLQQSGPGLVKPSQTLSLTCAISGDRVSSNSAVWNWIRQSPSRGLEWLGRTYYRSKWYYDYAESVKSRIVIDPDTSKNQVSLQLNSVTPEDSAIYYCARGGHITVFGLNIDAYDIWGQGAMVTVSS VL: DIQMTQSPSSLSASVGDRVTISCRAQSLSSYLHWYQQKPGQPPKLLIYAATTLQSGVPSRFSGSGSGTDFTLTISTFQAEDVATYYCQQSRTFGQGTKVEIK
0.024

Value lookup for EC50; key = Antibody 8 (antibody, V domains shown) VH: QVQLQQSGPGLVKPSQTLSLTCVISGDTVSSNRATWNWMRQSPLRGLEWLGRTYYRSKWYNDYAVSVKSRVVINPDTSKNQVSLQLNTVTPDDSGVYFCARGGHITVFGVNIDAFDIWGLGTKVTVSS VL: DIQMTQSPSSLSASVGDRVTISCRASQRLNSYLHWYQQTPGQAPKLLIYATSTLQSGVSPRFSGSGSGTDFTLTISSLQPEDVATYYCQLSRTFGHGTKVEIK
0.015

Value lookup for EC50; key = Antibody 10 (antibody, V domains shown) VH: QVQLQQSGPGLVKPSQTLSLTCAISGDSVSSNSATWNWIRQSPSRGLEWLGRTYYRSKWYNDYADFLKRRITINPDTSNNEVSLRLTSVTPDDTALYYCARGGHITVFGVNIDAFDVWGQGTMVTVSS VL: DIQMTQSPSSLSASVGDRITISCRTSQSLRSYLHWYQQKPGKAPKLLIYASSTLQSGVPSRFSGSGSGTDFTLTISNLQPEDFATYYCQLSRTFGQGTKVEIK
0.034

Value lookup for EC50; key = Antibody 6 (antibody, V domains shown) VH: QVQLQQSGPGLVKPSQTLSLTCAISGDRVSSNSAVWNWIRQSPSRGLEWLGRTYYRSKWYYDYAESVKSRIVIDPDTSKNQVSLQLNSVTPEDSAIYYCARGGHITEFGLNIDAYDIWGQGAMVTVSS VL: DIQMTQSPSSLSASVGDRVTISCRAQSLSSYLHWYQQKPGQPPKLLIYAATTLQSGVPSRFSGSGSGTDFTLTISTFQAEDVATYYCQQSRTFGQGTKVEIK
0.116
